System: TK-10 renal
Test: NCI tumour cell line growth inhibition, 48 h; in the data active = GI50 below about 0.43 µM; inactive = the rest
Labels: active, inactive

Compound	Subject Of Test	Label Class
CN(C)c1ccc(Nc2c3ccccc3nc3cc(NC(=O)CCN4CCCC4)ccc23)cc1	TK-10 renal	inactive
COc1ccc2c(c1)[nH]c(=O)c1c3cc(OC)c(OC)cc3cn21	TK-10 renal	active
COc1cc(/C(=C2/O[C@@H]([C@H]3COC(C)(C)O3)[C@H]3OC(C)(C)O[C@@H]23)c2ccc3c(c2)OCO3)cc(OC)c1OC	TK-10 renal	inactive
CCCCCCCCCCC[C@@H](C[C@H]1OC(=O)[C@H]1CCCCCC)OC(=O)[C@@H](CC(C)C)NC=O	TK-10 renal	inactive
O=C(c1nn(-c2ccc(Cl)cc2)cc1O)n1nc(C(F)(F)F)cc1-c1ccccc1	TK-10 renal	inactive
COc1cc(OC)c(F)c(COc2cnc(Nc3cnn(CCO)c3)nc2)c1F	TK-10 renal	inactive
COc1cc(C(=O)O/N=C(\N)Cc2cccc3ccccc23)cc(OC)c1OC	TK-10 renal	inactive
CC[C@H](C)[C@H](NC(=O)NC(C)(C)C)C(=O)N(C)[C@H](C[C@@H](OC(C)=O)c1nc(C(=O)N[C@@H](Cc2ccccc2)C[C@H](C)C(=O)OC)cs1)C(C)C	TK-10 renal	inactive
COc1ccc(/C=N\NC(=O)c2ccc3nc(-c4ccc(Cl)cc4)[nH]c3c2)cc1	TK-10 renal	inactive
Cc1c2oc3c(C)cc(F)c(C(=O)NC4C(=O)NC(C(C)C)C(=O)N5CCCC5C(=O)N(C)CC(=O)N(C)C(C(C)C)C(=O)OC4C)c3nc-2c(C(=O)NC2C(=O)NC(C(C)C)C(=O)N3CCCC3C(=O)N(C)CC(=O)N(C)C(C(C)C)C(=O)OC2C)c(N)c1=O (stereo not given)	TK-10 renal	inactive
CC(C)=CC(=O)N[C@@H]1CC2CCC3C(CC[C@@]4(C)C3CC[C@@H]4C(C)N(C)C)[C@@]2(C)C[C@@H]1O (stereo not given in full)	TK-10 renal	inactive
Cc1cc(NCc2cc(Nc3ccnc4cc(Cl)ccc34)ccc2F)nc(N2CCSCC2)n1	TK-10 renal	inactive
CNC(=O)c1cc(Oc2ccc3nc(N[C@@H]4CCCC[C@H]4O)sc3c2)ccn1	TK-10 renal	inactive
O=C(Cc1ccc(Nc2ccnc(C(F)(F)F)c2)cc1)Nc1cc(Cl)ccc1O	TK-10 renal	inactive
CC(=O)Nc1ccc(-c2csc(Nc3cccc(-c4csc(-c5ccccc5)n4)c3)n2)cc1	TK-10 renal	inactive

* * *

Test system: UO-31 renal
Test: NCI tumour cell line growth inhibition, 48 h
# TGI annotations

Compound	Units	Inequality Sign	TGI
CCn1c(=O)c2c3ccc(OC)cc3[nH]c2c2ccc(OC)cc21	µM	>	100
CNc1ccc([N+](=O)[O-])c2c(NCCCN(C)C)ccnc12	µM	>	100
COc1ccc2c(c1)[nH]c(=O)c1c3cc(OC)c(OC)cc3cn21	µM	=	17.4
O=C1/C(=C/c2ccc(Cl)cc2)CN(C(=O)CCN2CCC(=NO)CC2)C/C1=C\c1ccc(Cl)cc1	µM	=	2.3
CN(C)C=NCC(O)c1ccccc1 (configuration not stated)	µM	>	100
CO[C@]12CC(=O)C3(C(C[C@H]4CC5CC[C@H]6C[C@@H](OC(C)=O)CC[C@]6(OC(C)=O)C5C[C@@]43C)C1)C1C[C@H]3[C@@H]4CC[C@H]5C[C@@H](OC(C)=O)CC[C@]5(OC(C)=O)[C@H]4CC[C@]3(C)C12 (some centres not stated)	µM	>	100
O=C(Cc1csc2nc(-c3ccc(Br)cc3)cn12)N/N=C/c1ccc(Cl)cc1Cl	µM	>	100
C=C(C)[C@@H]1CC[C@]2(C(=O)O)CC[C@]3(C)[C@H](CC[C@@H]4[C@@]5(C)C/C(=C/c6cccc(I)c6)C(=O)C(C)(C)[C@@H]5CC[C@]43C)[C@@H]12	µM	=	5.17
C=C1CCC2C(C)(CO)C(O)CCC2(C)C1C/C=C1/CCOC1=O (configuration not stated)	µM	>	100
CS(=O)(=O)OCC1CCCCCCCCCCC12SCCCS2 (configuration not stated)	µM	>	100
O=S1c2ccccc2NC(c2ccc3ccccc3c2)CC1c1ccccc1 (configuration not stated)	µM	=	47.9
Cc1c2oc3c(C)cc(F)c(C(=O)NC4C(=O)NC(C(C)C)C(=O)N5CCCC5C(=O)N(C)CC(=O)N(C)C(C(C)C)C(=O)OC4C)c3nc-2c(C(=O)NC2C(=O)NC(C(C)C)C(=O)N3CCCC3C(=O)N(C)CC(=O)N(C)C(C(C)C)C(=O)OC2C)c(N)c1=O (configuration not stated)	µM	=	4.65
CC1CCOc2ccc(cc2)C=Nc2ccc(cc2)-c2ccc(cc2)N=Cc2ccc(cc2)OCC1 (configuration not stated)	µM	>	100
C[C@@H](Oc1cc(-n2cnc3ccc(OCC4CCN(C)CC4)cc32)sc1C(N)=O)c1ccccc1Cl	µM	=	3.96
COC1C(CO)OC(n2c3c(Cl)cccc3c3c4c(c5c6cccc(Cl)c6[nH]c5c32)C(=O)NC4=O)C(O)C1O (configuration not stated)	µM	=	2.6
COc1cc(/C=C/C(=N\NC(=S)NN)c2sc(NNC(C)=O)nc2C)ccc1O	µM	>	100
O=C(NNS(=O)(=O)c1ccccc1)c1csc(NC(=S)NC2CCCCC2)n1	µM	=	74.1

* * *

# reported log10 TGI; entries follow
Tested on: HCT-15 colon
Experiment: NCI tumour cell line growth inhibition, 48 h
Reported Metric: log10 TGI (log10 of the value in µM)

Molecule	log10 TGI
CN(C)CC1CCCc2ccccc2C1=O (stereo not given)	0.66
CCOC(OCC)C(CC)[Se]c1ccccc1 (stereo not given)	1.54
Cc1c2cccc-2c(OCCOC(=O)n2ccnc2)cc2c1[nH]c1ccccc12	0.77
C[C@@H](Oc1cc(-n2cnc3ccc(OCC4CCN(C)CC4)cc32)sc1C(N)=O)c1ccccc1Cl	0.53
CC(C)=CC(=O)N[C@@H]1CC2CCC3C(CC[C@@]4(C)C3CC[C@@H]4C(C)N(C)C)[C@@]2(C)C[C@@H]1O (stereo not given in full)	0.70

* * *

Test system: HS 578T breast
Assay: NCI tumour cell line growth inhibition, 48 h
// Not fulfilled strictly below 50 µM in TGI; Fulfilled otherwise

Molecule	Subject Of Test	Label Class
Cc1ccc(-c2cc(-c3ccc(C)cc3)nc(N3CCN(CCNc4ccnc5cc(Cl)ccc45)CC3)n2)cc1	HS 578T breast	Not fulfilled
Clc1ccc2nc(Cl)c3ccccc3c2c1	HS 578T breast	Fulfilled
CN1C=COC1N=C1CCCCC1 (stereo unspecified)	HS 578T breast	Fulfilled
CCN(CC)c1ccc2cc(C(N)=O)c(=Nc3ccc(F)cc3)oc2c1	HS 578T breast	Fulfilled
COc1cc2cnc(-c3ccccc3)cc2cc1OC	HS 578T breast	Fulfilled
OCCn1cc(-c2cnc3nnn(Cc4ccc5ncccc5c4)c3n2)cn1	HS 578T breast	Fulfilled
O=C1CC(c2ccsc2)c2snc(-c3ccc(Cl)cc3)c2N1 (stereo unspecified)	HS 578T breast	Fulfilled
Cc1ccc2c(=O)cc(Cc3csc4ccccc34)[nH]c2n1	HS 578T breast	Not fulfilled
O=C(Oc1ccccc1Cl)c1ccccc1Nc1cccc(C(F)(F)F)c1	HS 578T breast	Fulfilled
O=C1O[C@H]2C3C4CCC(C4[C@@H]2I)[C@H]13 (stereo partly specified)	HS 578T breast	Fulfilled

* * *

Test system: HL-60(TB) leukemia
Experiment: NCI tumour cell line growth inhibition, 48 h
Where a SMILES comes first, the peptide text is derived from it. Side-chain parts run from the residue outwards. The star is where a group is joined. Cbz = O=C(OCc1ccccc1)*; Boc = CC(C)(C)OC(=O)*

Compound	Subject Of Test	Units	Inequality Sign	TGI
CN(C)c1ccc(Nc2c3ccccc3nc3cc(NC(=O)CCN4CCCC4)ccc23)cc1	HL-60(TB) leukemia	µM	=	0.763
CC(C)=CC(=O)N[C@@H]1CC2CCC3C(CC[C@@]4(C)C3CC[C@@H]4C(C)N(C)C)[C@@]2(C)C[C@@H]1O (stereo partly drawn)	HL-60(TB) leukemia	µM	=	6.14
COc1cc(-c2nc(-c3ccc(-c4nc5ccc(F)cc5[nH]4)cc3)no2)cc(OC)c1OC	HL-60(TB) leukemia	µM	=	5.35
CC(C)(C)OC(=O)NC(CCCCNC(=O)CNC(=O)OCc1ccccc1)C(=O)NC(CCCCNC(=O)CNC(=O)OCc1ccccc1)C(=O)NC(CCCCNC(=O)CNC(=O)OCc1ccccc1)C(=O)NC(CCCCNC(=O)CNC(=O)OCc1ccccc1)C(=O)O (stereo not drawn) (Boc-K([Gly-Cbz])K([Gly-Cbz])K([Gly-Cbz])K([Gly-Cbz])-OH; configuration not given here)	HL-60(TB) leukemia	µM	>	100
O=C(c1ccccc1O)c1cc(-c2ncc3c(=O)c4ccccc4oc3n2)c(-c2ccccc2O)[nH]c1=O	HL-60(TB) leukemia	µM	=	53.2
COc1ccc(/C=N\NC(=O)c2ccc3nc(-c4ccc(Cl)cc4)[nH]c3c2)cc1	HL-60(TB) leukemia	µM	>	100
c1ccc2c(c1)Sc1ccccc1N2C1CN2CCC1CC2 (stereo not drawn)	HL-60(TB) leukemia	µM	=	32
C1=CN2C[n+]3ccc4ccccc4c3N=C2c2ccccc21	HL-60(TB) leukemia	µM	=	9.1
